src = paper PMC7139703

Listing of recorded IC50 by entry.
assayed-target: LlFpg (Lactococcus lactis subsp. cremoris, UniProt P42371)
Construct: made in house; host or cells: E. coli BH540 (fpg defective)
Sequence (P42371 2-273): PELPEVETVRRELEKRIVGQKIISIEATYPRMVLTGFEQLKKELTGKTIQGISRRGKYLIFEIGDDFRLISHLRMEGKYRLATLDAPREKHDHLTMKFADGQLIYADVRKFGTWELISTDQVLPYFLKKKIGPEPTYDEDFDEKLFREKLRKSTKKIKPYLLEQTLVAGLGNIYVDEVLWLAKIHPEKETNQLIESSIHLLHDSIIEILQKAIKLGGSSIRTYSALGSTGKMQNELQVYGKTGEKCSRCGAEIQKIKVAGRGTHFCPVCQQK
procedure-details: LlFpg 8-oxoG-DNA glycosylase/AP lyase activity assay (Urea-PAGE radioassay)
Assay type: biochemical
assay-setup: homogeneous reduced or disulfide form dissolved in 50 mM sodium phosphate, no DMSO stock; read-out: IC50^A (Fpg catalysis), homogeneous redox forms
property: IC50 (µM)

[[record]]
molecule = "O=c1[nH]c(=S)[nH]c2[nH]cnc12 [Compound 2TXRed, reference compound]"
op = ">"
meas_value = 1000

[[record]]
molecule = "O=c1[nH]c2[nH]c(=S)[nH]c(=O)c2[nH]1"
op = ">"
meas_value = 1000

[[record]]
molecule = "O=c1[nH]c(SSc2nc3[nH]cnc3c(=O)[nH]2)nc2[nH]cnc12"
op = "="
meas_value = 5.5

[[record]]
molecule = "O=c1[nH]c2nc(SSc3nc4[nH]c(=O)[nH]c4c(=O)[nH]3)[nH]c(=O)c2[nH]1 [TX14Ox]"
op = "="
meas_value = 2.7

